- measured-target: T1, mouse LAG-3 protein with hFc tag (mLAG-3-hFc protein) (mouse; human, UniProt Q61790 24-442)
- T1 construct: Made in HEK293 cells; also called mouse LAG-3 extracellular domain protein; not shown: human IgG Fc fragment (hFc) of the pCpC vector
- T1 sequence: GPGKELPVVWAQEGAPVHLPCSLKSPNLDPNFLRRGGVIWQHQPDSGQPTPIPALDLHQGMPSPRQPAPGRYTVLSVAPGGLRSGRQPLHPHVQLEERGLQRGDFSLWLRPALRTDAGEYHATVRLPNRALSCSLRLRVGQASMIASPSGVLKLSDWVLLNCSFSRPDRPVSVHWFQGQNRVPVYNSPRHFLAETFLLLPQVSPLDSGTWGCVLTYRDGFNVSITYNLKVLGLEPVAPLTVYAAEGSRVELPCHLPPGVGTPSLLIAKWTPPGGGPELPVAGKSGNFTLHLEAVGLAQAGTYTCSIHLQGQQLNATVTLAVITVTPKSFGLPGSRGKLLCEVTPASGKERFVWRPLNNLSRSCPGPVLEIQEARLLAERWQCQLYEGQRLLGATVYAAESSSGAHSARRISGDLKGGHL
- procedure-summary: ELISA, mLAG-3-hFc coated; 0.6667 nM
readout: OD450 (OD450)
One number for each entry, in OD450.

>  <binder>
105F1E10 (LAG-3 mouse-human chimeric antibody) (antibody, V domains shown) VH: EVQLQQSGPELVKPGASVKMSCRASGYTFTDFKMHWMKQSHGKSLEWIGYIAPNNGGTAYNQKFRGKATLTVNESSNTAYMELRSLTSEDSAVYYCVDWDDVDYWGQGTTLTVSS VL: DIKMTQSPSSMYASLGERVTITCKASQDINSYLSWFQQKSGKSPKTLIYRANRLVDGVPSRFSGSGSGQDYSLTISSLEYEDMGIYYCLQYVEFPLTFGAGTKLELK

>  <OD450 [OD450]>
0.09

$$$$
>  <binder>
409B11E12 (LAG-3 mouse-human chimeric antibody) (antibody, V domains shown) VH: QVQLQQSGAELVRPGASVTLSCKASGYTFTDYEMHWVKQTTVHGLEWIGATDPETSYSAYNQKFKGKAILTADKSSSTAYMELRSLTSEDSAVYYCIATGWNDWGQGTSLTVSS VL: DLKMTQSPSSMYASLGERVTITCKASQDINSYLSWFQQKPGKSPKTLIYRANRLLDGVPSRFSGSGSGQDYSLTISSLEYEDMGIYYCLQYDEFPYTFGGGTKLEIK

>  <OD450 [OD450]>
0.1

$$$$
>  <binder>
409D4E10 (LAG-3 mouse-human chimeric antibody) (antibody, V domains shown) VH: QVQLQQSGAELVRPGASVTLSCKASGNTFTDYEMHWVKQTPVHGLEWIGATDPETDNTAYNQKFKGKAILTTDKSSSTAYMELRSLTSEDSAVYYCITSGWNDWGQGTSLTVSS VL: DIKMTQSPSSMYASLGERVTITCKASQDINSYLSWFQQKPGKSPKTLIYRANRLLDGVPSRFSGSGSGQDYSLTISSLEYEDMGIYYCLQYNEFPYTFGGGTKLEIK

>  <OD450 [OD450]>
0.11

$$$$

Given item 405B8H3 (LAG-3 mouse-human chimeric antibody) (antibody, V domains shown, also called mouse-human chimeric antibody 405B8H3) VH: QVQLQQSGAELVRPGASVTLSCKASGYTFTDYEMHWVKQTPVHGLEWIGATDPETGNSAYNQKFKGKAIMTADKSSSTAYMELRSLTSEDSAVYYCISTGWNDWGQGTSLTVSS VL: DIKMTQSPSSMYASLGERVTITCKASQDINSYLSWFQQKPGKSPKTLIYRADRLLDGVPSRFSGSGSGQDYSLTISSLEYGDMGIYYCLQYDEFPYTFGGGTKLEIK , the value recorded as its OD450 is 0.11
